System: MDA-MB-231 breast
Assay: NCI tumour cell line growth inhibition, 48 h
Kind request: treat 50 µM as inclusive, so TGI at 50 µM or higher is 1, anything lower is -1.

- COMPOUND: "COc1ccc(-n2nc(C)c3c2N(C)C2(C)C[C@@H]4C3(C)[C@@H]3CC4(C2)N(C)c2c(c(C)nn2-c2ccc(OC)cc2)[C@H]3C)cc1 (some centres undefined)"
  ASSIGNED_CATEGORY: -1
- COMPOUND: "COC(=O)c1ccc(OCc2ccc3nc(-c4ccccc4)c(Cl)nc3c2)cc1"
  ASSIGNED_CATEGORY: 1
- COMPOUND: "CN1CCN(C(=S)SCN2C(=O)c3ccccc3S2(=O)=O)CC1"
  ASSIGNED_CATEGORY: 1
- COMPOUND: "BrCC[P+](c1ccccc1)(c1ccccc1)c1ccccc1"
  ASSIGNED_CATEGORY: -1
- COMPOUND: "COc1cc(C(=O)/C=C/c2c(C(F)(F)F)nc3sccn23)cc(OC)c1OC"
  ASSIGNED_CATEGORY: -1
- COMPOUND: "OCCCCC#Cc1ccccc1C#Cc1cnccn1"
  ASSIGNED_CATEGORY: 1
- COMPOUND: "COC1C(CO)OC(n2c3ccccc3c3c4c(c5c6ccccc6[nH]c5c32)C(=O)NC4=O)C(O)C1OC(=O)C(N)CCCCN (centres undefined)"
  ASSIGNED_CATEGORY: -1

* * *

Recorded TGI, one value per entry.
Test system: HCT-15 colon
Experiment: NCI tumour cell line growth inhibition, 48 h

- COMPOUND: "CCOP(=O)(OCC)C(F)(F)CC1CCCCC1"
  TGI: "> 10 µM"
- COMPOUND: "OCCCCC#Cc1ccccc1C#Cc1cnccn1"
  TGI: "> 100 µM"
- COMPOUND: "CC(C)C[C@H](NC(=O)[C@@H](O)[C@H](N)Cc1ccccc1)C(=O)O"
  TGI: "> 100 µM"
- COMPOUND: "Cc1ccc(OCCCCCCNCCO)c(C)c1"
  TGI: "33.8 µM"
- COMPOUND: "COC(=O)C(Cc1ccccc1)NC(=O)CCCNC(=O)OCc1ccccc1 (stereo unspecified)"
  TGI: "> 100 µM"
- COMPOUND: "Cc1cc(S(=O)(=O)NC(=NCC(=O)NN)NN)c(S)cc1Cl"
  TGI: "> 10 µM"
- COMPOUND: "C=C(CC1(CC(=C)c2ccc(C(=O)O)cc2)C(=O)N(C)C(=O)N(C)C1=O)c1ccc(C(=O)O)cc1"
  TGI: "> 100 µM"
- COMPOUND: "COC(=O)Nc1nc2ccc(Sc3ccc(NC(=O)Nc4cc(C(F)(F)F)ccc4F)cc3)cc2[nH]1"
  TGI: "8.19 µM"
- COMPOUND: "CCOc1ccc(NC(=S)/N=C/C(C(=O)Nc2ccccc2C)=C(\\C)O)cc1"
  TGI: "> 100 µM"
- COMPOUND: "CN(C)CCNC(=O)c1cccc2c(NC(CS)C(=O)O)c3ccccc3nc12 (stereo unspecified)"
  TGI: "26.3 µM"
- COMPOUND: "O=c1c2cc(F)ccc2sc2c(NCCCN3CCCC3)nc3ccccc3c12"
  TGI: "3.53 µM"

* * *

Test system: U251 CNS
Assay: NCI tumour cell line growth inhibition, 48 h; in the data active means GI50 below about 0.43 µM; inactive means the rest
Possible outcomes: Y for active, N for inactive

- COMPOUND: "Cn1cc(-c2nn3cc(-c4cccs4)nc3s2)c2cc(F)ccc21"
  ASSIGNED_CATEGORY: "N"
- COMPOUND: "Cn1c(COC(=O)NCCN2CCOCC2)nc2c(N3CCOCC3)nc(-c3ccccc3)nc21"
  ASSIGNED_CATEGORY: "N"
- COMPOUND: "CC[C@@]1(OC(=O)CN(C)C)C(=O)OCc2c1cc1n(c2=O)Cc2cc3ccccc3nc2-1"
  ASSIGNED_CATEGORY: "Y"
- COMPOUND: "CC[C@@]1(O)C(=O)OCc2c1cc1n(c2=O)Cc2cc3c(NC(C)=O)c(O)ccc3nc2-1"
  ASSIGNED_CATEGORY: "Y"
- COMPOUND: "C=C(C)[C@@H]1CCC[C@]2(C(=O)O)CC[C@]3(C)[C@@H](CC[C@@H]4[C@@]5(C)C/C(=C/c6ccncc6)C(=O)C(C)(C)[C@@H]5CC[C@]43C)[C@@H]12"
  ASSIGNED_CATEGORY: "N"
- COMPOUND: "CCOC(=O)Cc1csc(NC(=O)C(OC(=O)c2ccc(N)cc2)c2ccccc2)n1 (configuration not stated)"
  ASSIGNED_CATEGORY: "N"
- COMPOUND: "CC(=O)N[C@@H]1CCC[C@H](C(=O)Nc2cc(-c3cnn4c3CC(C)(C)C4)c(Cl)cn2)C1"
  ASSIGNED_CATEGORY: "Y"

Values compiled from PubChem BioAssay (NCI).
